target entity: P-selectin/PSGL-1 interaction (Homo sapiens)
Construct: comprised of the lectin and epidermal growth factor-like (EGF) domains expressed in CHO cells; made in house; host or cells: CHO cells (P-LE)
protocol text: Biacore P-Selectin/PSGL-1 Inhibition Assay (surface plasmon resonance)
Format: binding
experimental setup: 250 uM test compound, 500 nM P.LE, immobilized PSGL-1 19ek, 10% DMSO, pH 7.4
# maps each entry to its inhibition at 250 µM

# example entries with known answers
| structure smiles string | property measured | result |
| --- | --- | --- |
| CCc1cc(C(F)(F)F)cc2c(C(=O)O)c(O)c(C3(c4ccc(Cl)cc4)CC3)nc12 | inhibition at 250 µM | ≤ 10% |
| O=C(O)c1c(O)c(C2(c3ccc(Cl)cc3)CC2)nc2c(C(F)(F)F)cc(Br)cc12 | inhibition at 250 µM | ≤ 10% |

# ---- query compound ----
Per the record, O=C(O)c1c(O)c(C2(c3ccc(F)cc3)CC2)nc2c(Br)cccc12 has inhibition at 250 µM of ≤ 10%

====

target entity: P-selectin/PSGL-1 interaction (Homo sapiens, UniProt P16109)
Construct: comprised of the lectin and epidermal growth factor-like (EGF) domains expressed in CHO cells; made in house; host or cells: CHO cells (P-LE)
Sequence (P16109 42-198): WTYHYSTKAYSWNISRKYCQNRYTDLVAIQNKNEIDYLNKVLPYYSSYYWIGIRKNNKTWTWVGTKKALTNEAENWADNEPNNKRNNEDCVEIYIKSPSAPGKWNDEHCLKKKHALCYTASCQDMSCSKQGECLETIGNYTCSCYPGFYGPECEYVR
protocol text: Biacore P-Selectin/PSGL-1 Inhibition Assay (surface plasmon resonance)
Assay type: binding
experimental setup: 250 uM test compound, 500 nM P.LE, immobilized PSGL-1 19ek, 10% DMSO, pH 7.4
property measured: inhibition at 250 µM (%)

| compound | unit name | inhibition at 250 µM |
| --- | --- | --- |
| CCC(c1ccccc1)c1nc2c(C(F)(F)F)cccc2c(C(=O)O)c1O (centres unmarked) [Compound 126] | % | 61 |
| O=C(O)c1c(O)c(C2(c3ccc(Cl)cc3)CC2)nc2c3c(ccc12)CCCC3 [Compound 36] | % | 67 |
| O=C(O)c1c(O)c(C2(c3ccc(Cl)cc3)CC2)nc2ccc(C(F)(F)F)cc12 [Compound 24] | % | 34 |
| O=C(O)c1c(O)c(C2(c3ccccc3C(F)(F)F)CC2)nc2c(C(F)(F)F)cccc12 [Compound 63] | % | 17 |
| Cc1ccc2c(C(=O)O)c(O)c(C3(c4ccccc4)CC3)nc2c1C [Compound 43] | % | 18 |

I: Cc1ccc2c(C(=O)O)c(O)c(C(C)(C)c3ccccc3)nc2c1C [Compound 115]
II: CCc1cccc2c(C(=O)O)c(O)c(C3(c4ccc(F)cc4)CC3)nc12 [Compound 65]
III: CCc1ccc2c(C(=O)O)c(O)c(C3(c4ccc(Cl)cc4)CC3)nc2c1 [Compound 12]
Task: Rank order required: inhibition at 250 µM, descending. // list labels; follow requested order
Result: I, II, III

====

target entity: P-selectin/PSGL-1 interaction (Homo sapiens, UniProt P16109)
Construct: comprised of the lectin and epidermal growth factor-like (EGF) domains expressed in CHO cells; made in house; host or cells: CHO cells (P-LE)
protocol text: Biacore P-Selectin/PSGL-1 Inhibition Assay (surface plasmon resonance)
Format: binding
experimental setup: 250 uM test compound, 500 nM P.LE, immobilized PSGL-1 19ek, 10% DMSO, pH 7.4
# maps each entry to its inhibition at 250 µM

# example entries with known answers
| compound | target entity | inhibition at 250 µM |
| --- | --- | --- |
| O=C(O)c1c(O)c(C2(c3ccccc3)CC2)nc2c(OC(F)(F)F)cccc12 [Compound 46] | P-selectin/PSGL-1 interaction (Homo sapiens, UniProt P16109) | ≤ 10% |
| CCc1ccc2nc(C3(c4ccccc4)CC3)c(O)c(C(=O)O)c2c1 [Compound 27] | P-selectin/PSGL-1 interaction (Homo sapiens, UniProt P16109) | ≤ 10% |
| O=C(O)c1c(O)c(C2(c3ccc(Cl)cc3)CC2)nc2c(C(F)(F)F)cccc12 [Compound 38] | P-selectin/PSGL-1 interaction (Homo sapiens, UniProt P16109) | 52% |
| O=C(O)c1c(O)c(C2(c3ccc(Cl)cc3)CC2)nc2c(-c3ccccc3)cc(C(F)(F)F)cc12 [Compound 100] | P-selectin/PSGL-1 interaction (Homo sapiens, UniProt P16109) | ≤ 10% |
| O=C(O)c1c(O)c(C2(c3ccc(Cl)cc3)CC2)nc2c(C3CC3)cccc12 [Compound 109] | P-selectin/PSGL-1 interaction (Homo sapiens, UniProt P16109) | 57% |
| O=C(O)c1c(O)c(C2(c3ccccc3Cl)CC2)nc2c(C(F)(F)F)cccc12 [Compound 55] | P-selectin/PSGL-1 interaction (Homo sapiens, UniProt P16109) | 57% |
| O=C(O)c1c(O)c(C2(c3ccc(Cl)cc3)CC2)nc2c(C(O)(C(F)(F)F)C(F)(F)F)cccc12 [Compound 41] | P-selectin/PSGL-1 interaction (Homo sapiens, UniProt P16109) | ≤ 10% |
| CC(C)(C)c1cccc2c(C(=O)O)c(O)c(C3(c4ccc(Cl)cc4)CC3)nc12 [Compound 4] | P-selectin/PSGL-1 interaction (Homo sapiens, UniProt P16109) | ≤ 10% |

# ---- query compound ----
Per the record, COc1ccc2nc(C3(c4ccc(Cl)cc4)CC3)c(O)c(C(=O)O)c2c1 [Compound 20] has inhibition at 250 µM of ≤ 10%

Data credit: patent US20080255192A1
